- ASSAYED SYSTEM: ABHD6 (Mus musculus (Mouse), UniProt Q8R2Y0)
- Sequence (Q8R2Y0 whole entry): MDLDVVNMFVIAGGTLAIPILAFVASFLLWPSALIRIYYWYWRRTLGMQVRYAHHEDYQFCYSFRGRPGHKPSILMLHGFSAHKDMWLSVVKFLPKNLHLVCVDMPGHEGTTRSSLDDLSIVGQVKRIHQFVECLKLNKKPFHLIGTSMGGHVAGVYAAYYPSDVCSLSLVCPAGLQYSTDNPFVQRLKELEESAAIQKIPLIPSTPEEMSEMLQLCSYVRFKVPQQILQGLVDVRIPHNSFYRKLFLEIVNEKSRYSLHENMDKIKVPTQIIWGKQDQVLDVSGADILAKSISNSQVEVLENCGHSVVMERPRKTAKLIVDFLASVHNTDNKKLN
- ASSAY OVERVIEW: In vitro competitive activity-based protein profiling (mouse brain membrane fraction or cell lysates), ABHD6 band
- Assay type: biochemical
- MEASUREMENT CONDITIONS: 1 μM, mouse proteome; read-out: ABHD6 % Inh 1 μM (mouse)
inhibition at 1 µM overview

- MOLECULE SMILES: "O=C(OC(C(F)(F)F)C(F)(F)F)N1CCC2(CCCN2Cc2cccc(OCCN3CCOCC3)c2)CC1"
  inhibition at 1 µM: "< 25%"
- MOLECULE SMILES: "O=C(OC(C(F)(F)F)C(F)(F)F)N1CCC2(CCCN2Cc2ccc(C(F)(F)F)c(Cl)c2)CC1"
  inhibition at 1 µM: "25 to 75%"
- MOLECULE SMILES: "O=C(OC(C(F)(F)F)C(F)(F)F)N1CCC2(CCN(Cc3cccc(N4CCCC4)c3)C2)CC1"
  inhibition at 1 µM: "≥ 75%"
- MOLECULE SMILES: "O=C(O)C1CCN(c2cc(C(F)(F)F)ccc2CN2CCCC23CCN(C(=O)OC(C(F)(F)F)C(F)(F)F)CC3)CC1"
  inhibition at 1 µM: "< 25%"
- MOLECULE SMILES: "Cc1c(CN2CCCC23CCN(C(=O)OC(C(F)(F)F)C(F)(F)F)CC3)cccc1N1CCOCC1"
  inhibition at 1 µM: "< 25%"
- MOLECULE SMILES: "O=C(OC(C(F)(F)F)C(F)(F)F)N1CCC2(CCN(Cc3cccc(Cl)c3N3CCC(F)(F)CC3)C2)CC1"
  inhibition at 1 µM: "< 25%"
- MOLECULE SMILES: "O=C(OC(C(F)(F)F)C(F)(F)F)N1CCC2(CCCN2Cc2cc(Cl)cc(N3CCOCC3)c2)CC1"
  inhibition at 1 µM: "< 25%"

###

IC50 overview
- ASSAYED SYSTEM: ABHD6 (Mus musculus (Mouse))
- ASSAY OVERVIEW: In vitro competitive activity-based protein profiling (mouse brain membrane fraction or cell lysates), ABHD6 band
- Type: biochemical
- MEASUREMENT CONDITIONS: mouse proteome, competitive ABPP
OBSERVATION TYPE: IC50

- MOLECULE SMILES: "O=C(O)C1CCN(c2cc(C(F)(F)F)ccc2CN2CCC3(CCN(C(=O)OC(C(F)(F)F)C(F)(F)F)CC3)C2)CC1"
  EXPERIMENTAL VALUE: "0.1 to 1 µM"
- MOLECULE SMILES: "O=C(OC(C(F)(F)F)C(F)(F)F)N1CCC2(CCCN2Cc2ccc(C(F)(F)F)cc2OC2CCS(=O)(=O)CC2)CC1"
  EXPERIMENTAL VALUE: "> 1 µM"
- MOLECULE SMILES: "O=C(OC(C(F)(F)F)C(F)(F)F)N1CCC2(CCN(Cc3cccc(Cl)c3N3CCC(F)(F)CC3)C2)CC1"
  EXPERIMENTAL VALUE: "> 1 µM"
- MOLECULE SMILES: "CN1CCC(Oc2cc(C(F)(F)F)ccc2CN2CCCC23CCN(C(=O)OC(C(F)(F)F)C(F)(F)F)CC3)CC1"
  EXPERIMENTAL VALUE: "> 1 µM"
